Recorded Metric: melting point (°C)
Number in °C, nothing else.

CCOc1nc(NC(C)=O)nc2ccc(Cl)nc12	233

Enquiry: Please report the measured melting point for COc1cc(N)c(Cl)cc1C(=O)NC1CCN(CCNC(=O)C(CO)c2ccccc2)CC1OC (stereo not given)
Return: 114

====

Recorded Metric: melting point

CCC(=O)Nc1cccc(-c2ccc(=O)[nH]n2)c1	229 to 230 °C
C=C(C#N)CCC(=O)O	26.5 to 27 °C
COc1cn(-c2ccccc2F)nc(C(C)=O)c1=O	154 to 156 °C
O=C(O)CC(=O)Nc1ccccc1CCNC(=O)/C(=C/c1c[nH]c2ccccc12)NC(=O)OC1C2CC3CC(C2)CC1C3 (stereo not drawn)	112 to 120 °C
O=C(O)c1cc2sccc2cn1	212 °C

Enquiry: Please report the measured melting point for `CCOC(=O)c1nc2ccccc2n(CCO)c1=O`
Return: 137 to 138 °C

Enquiry: Please report the measured melting point for `c1csc(-c2cnc(COc3ccc(CCCn4ccnc4)cc3)o2)c1`
Return: 75 to 76 °C

Enquiry: Please report the measured melting point for `CCOc1ncc(C(C)=O)cc1C(=O)Nc1c(C(N)=O)nn(CC2CC2)c1CC`
Return: 238 to 240 °C

Enquiry: Please report the measured melting point for CC(Cn1ncnn1)n1nnc2cc3c(=O)n(C)nnc3cc2c1=O (stereo not drawn)
Return: 228 to 230 °C

Enquiry: Please report the measured melting point for `CC(=O)Nc1cc(Cl)c(C)c(Cl)c1O`
Return: 175 to 176 °C

Enquiry: Please report the measured melting point for `COc1cc(C(=O)O)c2oc(-c3ccc(OC)c(F)c3)cc2c1`
Return: 254 to 256 °C

Enquiry: Please report the measured melting point for `CCCCNC(=O)C(=O)Nc1ccc(OC)cc1N`
Return: 180 to 181 °C

Enquiry: Please report the measured melting point for O=C(CC1CC(OC(=O)c2ccccc2)CCC1=O)c1ccccc1 (stereo not drawn)
Return: 107 to 108 °C

Enquiry: Please report the measured melting point for `CC(=O)C=CC1=C(C)C(=O)CCC1(C)C`
Return: 50 to 51 °C

====

Recorded Metric: melting point (°C)
Number in °C, nothing else.

N#Cc1nn(-c2c(Cl)cc(C(F)(F)F)cc2Cl)c(N)c1-c1ccccc1C(F)(F)F	161

For the next question, use this compound.
Enquiry: Please report the measured melting point for `O=C1NCN=C(c2ccccc2)c2ccccc21`
Return: 215

====

Listing of recorded melting point by entry.

Enquiry: Please report the measured melting point for `Cc1ccc2nc3c(C)cc(=O)c(Cl)c-3sc2c1`
Return: 215 to 218 °C

Enquiry: Please report the measured melting point for O=C1c2cc(O)ccc2OCC1Cc1nccs1 (stereo not given)
Return: 150 to 152 °C

Enquiry: Please report the measured melting point for `CCOC(=O)c1c(C)nsc1NC(=O)NC`
Return: 187 to 189 °C

Enquiry: Please report the measured melting point for COC(=O)C(C)Oc1cccc(C=O)c1 (stereo not given)
Return: 50.7 °C

Enquiry: Please report the measured melting point for Cn1cc(C2=C(c3c4n(c5ccccc35)CC(CN)CC4)C(=O)NC2=O)c2ccccc21 (stereo not given)
Return: 160 to 165 °C

Enquiry: Please report the measured melting point for `CC(C)(CCC(F)(F)C(F)(F)C(F)(F)C(F)(F)C(F)(F)C(F)(F)C(F)(F)C(F)(F)F)OC(=O)N1CCC(C(=O)O)CC1`
Return: 140 to 142 °C
